- measurementTarget: human VR1 (Homo sapiens, UniProt Q8NER1)
- Sequence (Q8NER1 whole entry): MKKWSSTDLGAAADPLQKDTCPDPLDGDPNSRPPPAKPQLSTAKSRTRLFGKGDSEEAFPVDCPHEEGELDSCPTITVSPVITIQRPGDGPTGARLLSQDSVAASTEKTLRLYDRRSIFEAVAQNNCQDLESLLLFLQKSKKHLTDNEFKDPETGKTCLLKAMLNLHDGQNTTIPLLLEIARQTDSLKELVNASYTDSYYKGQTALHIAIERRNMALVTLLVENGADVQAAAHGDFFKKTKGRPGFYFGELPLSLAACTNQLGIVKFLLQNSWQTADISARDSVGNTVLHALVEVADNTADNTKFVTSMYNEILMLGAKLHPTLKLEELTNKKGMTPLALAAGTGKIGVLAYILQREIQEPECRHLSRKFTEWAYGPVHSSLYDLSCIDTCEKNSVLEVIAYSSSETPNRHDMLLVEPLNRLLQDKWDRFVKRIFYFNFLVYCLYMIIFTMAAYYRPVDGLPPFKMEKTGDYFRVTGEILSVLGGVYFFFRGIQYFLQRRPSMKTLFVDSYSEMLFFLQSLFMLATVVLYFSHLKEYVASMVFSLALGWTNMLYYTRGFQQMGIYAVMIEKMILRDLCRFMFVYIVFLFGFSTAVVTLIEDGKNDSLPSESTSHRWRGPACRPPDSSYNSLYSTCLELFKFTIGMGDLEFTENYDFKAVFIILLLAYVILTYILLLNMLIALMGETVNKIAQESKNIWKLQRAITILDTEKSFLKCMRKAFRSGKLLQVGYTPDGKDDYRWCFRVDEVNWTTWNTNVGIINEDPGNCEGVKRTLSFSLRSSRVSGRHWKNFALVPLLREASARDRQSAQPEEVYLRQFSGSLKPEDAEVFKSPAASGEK
- protocolNotes: Inhibition of Ca2+ entry in cells caused by proton, in rat glioma (C6BU1) cells stably expressing human VR1 (Fura 2 fluorescence)
- experimentalParameters: inhibition of proton-induced Ca2+ entry
pIC50: −log10 of the molar value.
parameterMeasured: pIC50

compound	pIC50
Cc1ccc(N2CCOc3c(C(=O)Nc4ccc(N5CCCCC5)c(F)c4)cccc32)nc1	> 7.00
O=C(Nc1ccc(C(F)(F)F)cc1)c1cccc2c1OC[C@H](CO)N2c1ccc(Cl)cn1	> 7.00

pIC50 of NC(=O)c1cnc(N2CCOc3c(C(=O)Nc4ccc(OC(F)(F)F)cc4)cccc32)c(Cl)c1 on human VR1 (Homo sapiens, UniProt Q8NER1)? > 7.00

Kindly state the measured pIC50 obtained for Cc1ccc(N2CCOc3c(C(=O)N[C@H]4CC[C@H](OC5CCCCC5)CC4)cccc32)nc1 with human VR1 (Homo sapiens, UniProt Q8NER1). > 7.00

Hello, I am looking for reported pIC50 with human VR1 (Homo sapiens, UniProt Q8NER1) for Cc1ccc(N2c3cccc(C(=O)Nc4ccc(C(F)(F)F)cc4)c3OC[C@@H]2CO)nc1 . Could you help? > 7.00

human VR1 (Homo sapiens, UniProt Q8NER1) / pIC50 / O=C(Nc1ccc(OC(F)(F)F)cc1)c1cccc2c1OC(CO)CN2c1ncccc1Cl (stereo not shown) : value? 6.00 to 7.00

// fetch human VR1 (Homo sapiens, UniProt Q8NER1) pIC50 for CC(C)CNc1ccc(NC(=O)c2cccc3c2OCCN3c2ncccc2Cl)cc1F > 7.00

Give the reported pIC50 for O=C(Nc1ccc2c(c1)OC(F)(F)C(F)(F)O2)c1cccc2c1OCCN2c1ncc(CO)cc1Cl (system: human VR1 (Homo sapiens, UniProt Q8NER1)). > 7.00

Query pIC50 on human VR1 (Homo sapiens, UniProt Q8NER1) for CCOc1ccc(NC(=O)c2cccc3c2OCCN3c2ccc(C)cn2)cc1F > 7.00

Please tell me: pIC50 of CC(C)Oc1ccc(NC(=O)c2cccc3c2OC[C@H](CO)N3c2ncccc2Cl)cc1F , system human VR1 (Homo sapiens, UniProt Q8NER1)? > 7.00
